Target: Cell division control protein 42 homolog (Homo sapiens) (UniProt P60953)
Sequence (P60953 whole entry, looked up): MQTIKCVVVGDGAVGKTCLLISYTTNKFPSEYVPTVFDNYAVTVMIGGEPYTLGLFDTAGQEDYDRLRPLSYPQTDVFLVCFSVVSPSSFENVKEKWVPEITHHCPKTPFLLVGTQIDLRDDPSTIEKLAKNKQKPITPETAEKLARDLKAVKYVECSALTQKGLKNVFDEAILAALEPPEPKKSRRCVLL
Assay: inhibition of fluorescent GTP binding to wildtype Cdc42 – biochemical, multiplex bead flow cytometry, Bodipy-FL-GTP, dose response (AID 1334);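 also: potency of inhibiting fluorescent GTP binding to Cdc42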
Details: bead-based flow cytometry, Bodipy-FL-GTP binding to GST-Cdc42
Consider the following compounds and their measured pEC50 readings.
pEC50 is a log-scale quantity: -log10 of the concentration expressed in molar.

Examples with answers:
{"compound": "CCn1nc(/C=C/c2ccccc2)nc2c(=O)n(C)c(=O)nc1-2", "pEC50": 5.81}
{"compound": "Cc1cccc2cc(CN(Cc3cccs3)C(c3nnnn3C3CCCC3)C(C)C)c(=O)[nH]c12 (stereo unspecified)", "pEC50": 5.71}
{"compound": "Cc1sc2nc3ccc(NCc4ccco4)nn3c(=O)c2c1C", "pEC50": 4.67}

Inquiry: Would you mind telling me what pEC50 value was observed for CCOc1ccc(/C=C2\SC(N3CCc4ccccc4C3)=NC2=O)cc1 ?
Reply text: 4.39

Inquiry: Would you mind telling me what pEC50 value was observed for CC(=O)c1ccc(C#CC(=O)c2ccc([N+](=O)[O-])cc2)cc1 ?
Reply text: 6.40

Inquiry: Would you mind telling me what pEC50 value was observed for S=C(Nc1ccc(Oc2ccccc2)cc1)NC1CCCCC1 ?
Reply text: 4.48
